For each entry below, report its % I (0.5 μM) value.
Molecular target: canine TRPM8 (Canis lupus familiaris, UniProt Q1A7N1)
Construct: expressed in transfected cells
Sequence (Q1A7N1 1-1104): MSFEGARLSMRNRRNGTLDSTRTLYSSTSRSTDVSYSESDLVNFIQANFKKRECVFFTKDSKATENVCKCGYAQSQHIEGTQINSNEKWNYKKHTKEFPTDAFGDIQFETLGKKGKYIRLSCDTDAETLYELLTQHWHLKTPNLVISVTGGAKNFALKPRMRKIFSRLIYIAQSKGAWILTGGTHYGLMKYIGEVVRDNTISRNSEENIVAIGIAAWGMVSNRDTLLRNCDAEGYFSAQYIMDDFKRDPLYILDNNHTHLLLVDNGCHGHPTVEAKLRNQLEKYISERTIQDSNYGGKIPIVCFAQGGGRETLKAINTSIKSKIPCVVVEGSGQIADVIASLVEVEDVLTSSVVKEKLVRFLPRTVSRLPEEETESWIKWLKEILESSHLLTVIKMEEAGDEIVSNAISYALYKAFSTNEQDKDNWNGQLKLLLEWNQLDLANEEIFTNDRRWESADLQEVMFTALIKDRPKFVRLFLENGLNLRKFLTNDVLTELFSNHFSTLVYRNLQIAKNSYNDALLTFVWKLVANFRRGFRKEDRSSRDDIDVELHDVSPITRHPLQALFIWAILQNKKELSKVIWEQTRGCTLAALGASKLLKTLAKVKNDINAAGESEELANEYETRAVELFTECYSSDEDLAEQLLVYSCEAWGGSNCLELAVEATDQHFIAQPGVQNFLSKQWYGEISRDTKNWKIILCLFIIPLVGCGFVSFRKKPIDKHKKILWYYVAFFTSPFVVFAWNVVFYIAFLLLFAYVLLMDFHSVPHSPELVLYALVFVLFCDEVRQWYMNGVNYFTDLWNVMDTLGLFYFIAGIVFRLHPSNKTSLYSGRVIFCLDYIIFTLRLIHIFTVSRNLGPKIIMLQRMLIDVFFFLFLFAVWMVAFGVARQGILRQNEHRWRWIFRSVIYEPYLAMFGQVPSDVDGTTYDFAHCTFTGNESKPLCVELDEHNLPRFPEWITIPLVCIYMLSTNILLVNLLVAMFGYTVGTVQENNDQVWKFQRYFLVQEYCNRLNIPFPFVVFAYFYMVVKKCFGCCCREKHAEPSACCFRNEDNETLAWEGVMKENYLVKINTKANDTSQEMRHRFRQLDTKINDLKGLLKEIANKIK
Assay: In Vitro Canine TRPM8 Functional Assay (Ca2+-sensitive fluorescent dye, icilin activation, FLIPR/FDSS)
Assay type: cell-based
Settings: compound at 0.5 μM; HEK293 cells stably expressing canine TRPM8, icilin activation
Protocol: The functional activity of compounds of Formula (I) was determined by measuring changes in intracellular calcium concentration using a Ca^2+-sensitive fluorescent dye. The changes in fluorescent signal were monitored by a fluorescence plate reader, either a FLIPR™ (Molecular Devices) or FDSS (Hamamatsu). […] Basal FI was subtracted prior to normalizing data to percent of maximal response. […] Finally, the EC50 and IC50 values were calculated with the best-fit dose curve determined by GraphPad Prism.
Answers are plain numbers, in %.

Each of the following entries comes with a recorded value; kindly state % I (0.5 μM) for each.
1. CCOP(=O)(OCC)C(Cc1ccc(OC)c(C(F)(F)F)c1)c1sc2ccccc2c1Cl (stereo not drawn)
2. CC(C)OP(=O)(OC(C)C)C(Cc1cc(Cl)ccc1F)c1sc2ccccc2c1Cl (stereo not drawn)
3. CCOP(=O)(OCC)C(Cc1cc(C(F)(F)F)ccc1F)c1sc2ccccc2c1Br (stereo not drawn)
4. CCOP(=O)(OCC)C(Cc1ccc(OC(F)(F)F)c(Cl)c1)c1sc2ccccc2c1Br (stereo not drawn)
5. CCOP(=O)(OCC)C(Cc1ccc(SC)cc1)c1sc2ccccc2c1Br (stereo not drawn)
6. CC(C)OP(=O)(OC(C)C)C(Cc1ccc(C(F)(F)F)cc1F)c1sc2ccccc2c1Br (stereo not drawn)
7. CCOP(=O)(OCC)C(Cc1ccc(F)c(F)c1)c1sc2ccccc2c1-c1ccsc1 (stereo not drawn)

stdout:
99
102
103
103
103
103
104

* * *

target: canine TRPM8 (Canis lupus familiaris, UniProt Q1A7N1); construct: expressed in transfected cells; assay: In Vitro Canine TRPM8 Functional Assay (Ca2+-sensitive fluorescent dye, icilin activation, FLIPR/FDSS); format: cell-based; conditions: compound at 1 μM; HEK293 cells stably expressing canine TRPM8, icilin activation
Measurement type: % I (1 μM) (%)
Answers are plain numbers, in %.

1) CCOP(=O)(Cc1cc2ccccc2s1)OCc1ccccc1C (stereo not drawn) ... 53
2) CCOP(=O)(OCC)C(Cc1ccc(F)c(F)c1)c1sc2ncccc2c1Br (stereo not drawn) ... 102
3) CCOP(=O)(OCC)C(Cc1ccc(Cl)c(Cl)c1)c1cc2ccccc2s1 (stereo not drawn) ... 95
4) CCOP(=O)(OCC)C(Cc1cccc(Cl)c1F)c1sc2ccccc2c1C (racemic) ... 100

Each of the following entries comes with a recorded value; kindly state % I (1 μM) for each.
1. CCC(C)P(=O)(C(C)CC)C(OCc1ccc(F)c(F)c1)c1sc2ccccc2c1Br (stereo not drawn)
2. CCOP(=O)(Cc1cc2ccccc2s1)OCc1ccccc1Cl (stereo not drawn)
3. CCOP(=O)(OCC)C(Cc1ccc2ccccc2c1)c1sc2ccccc2c1C (racemic)
4. CCOP(=O)(OCC)C(Cc1ccc(F)c(F)c1)c1sc2c(F)cccc2c1C (stereo not drawn)
5. CC(C)OP(=O)(OC(C)C)C(Cc1ccc(F)c(F)c1)c1sc2ccccc2c1C1CCCC1 (racemic)

stdout:
[100, 48, 99, 100, 99]

Recorded values, source patent US8558011B2.
